Data provenance is patent US8574831B2.

We begin with a simple list: items and their reported Fold change in IC50.
Test system: HIV with mutations in the HIV protease sequence
Test: Phenotypic fold resistance to protease inhibitors, protease mutations 84A/84L/84C/54M/54L/54V in a background (Examples 8-13)
Format: cell-based, HIV-1
Conditions: Virco ID V021667; genotype 10I; vs mean IC50 of wild type laboratory HIV strain
Quick reminder: number only, in fold, skip the unit.

// solved cases for Fold change in IC50 follow
compound="CC(C)(C)NC(=O)[C@@H]1C[C@@H]2CCCC[C@@H]2CN1C[C@@H](O)[C@H](Cc1ccccc1)NC(=O)[C@H](CC(N)=O)NC(=O)c1ccc2ccccc2n1 [Saquinavir, saquinavir]" attribute_measured="Fold change in IC50" test_result=0.9
compound="CC(C)(C)NC(=O)[C@@H]1CN(Cc2cccnc2)CCN1C[C@@H](O)C[C@@H](Cc1ccccc1)C(=O)N[C@H]1c2ccccc2C[C@H]1O [Indinavir, indinavir]" attribute_measured="Fold change in IC50" test_result=0.7
compound="CC(C)CN(C[C@@H](O)[C@H](Cc1ccccc1)NC(=O)O[C@H]1CCOC1)S(=O)(=O)c1ccc(N)cc1 [Amprenavir, amprenavir]" attribute_measured="Fold change in IC50" test_result=1.1

Entry Cc1c(O)cccc1C(=O)N[C@@H](CSc1ccccc1)[C@H](O)CN1C[C@H]2CCCC[C@H]2C[C@H]1C(=O)NC(C)(C)C [Nelfinavir, nelfinavir] has what Fold change in IC50? 1.0

Entry CC(C)c1nc(CN(C)C(=O)N[C@H](C(=O)N[C@@H](Cc2ccccc2)C[C@H](O)[C@H](Cc2ccccc2)NC(=O)OCc2cncs2)C(C)C)cs1 [Ritonavir, ritonavir] has what Fold change in IC50? 1.2

* * *

System: HIV with mutations in the HIV protease sequence
Test: Phenotypic fold resistance to protease inhibitors, protease mutations 84A/84L/84C/54M/54L/54V in a background (Examples 8-13)
Format: cell-based, HIV-1
Conditions: Virco ID V052960; genotype 10I + 33F + 54V + 71V + 90M; vs mean IC50 of wild type laboratory HIV strain
ATTRIBUTE MEASURED: Fold change in IC50 (fold)
Quick reminder: number only, in fold, skip the unit.

// solved cases for Fold change in IC50 follow
smiles=Cc1c(O)cccc1C(=O)N[C@@H](CSc1ccccc1)[C@H](O)CN1C[C@H]2CCCC[C@H]2C[C@H]1C(=O)NC(C)(C)C test_result=40.7
smiles=CC(C)CN(C[C@@H](O)[C@H](Cc1ccccc1)NC(=O)O[C@H]1CCOC1)S(=O)(=O)c1ccc(N)cc1 test_result=6.4
smiles=CC(C)(C)NC(=O)[C@@H]1CN(Cc2cccnc2)CCN1C[C@@H](O)C[C@@H](Cc1ccccc1)C(=O)N[C@H]1c2ccccc2C[C@H]1O test_result=9.9
smiles=CC(C)(C)NC(=O)[C@@H]1C[C@@H]2CCCC[C@@H]2CN1C[C@@H](O)[C@H](Cc1ccccc1)NC(=O)[C@H](CC(N)=O)NC(=O)c1ccc2ccccc2n1 test_result=21.8

--- query ---
Entry CC(C)c1nc(CN(C)C(=O)N[C@H](C(=O)N[C@@H](Cc2ccccc2)C[C@H](O)[C@H](Cc2ccccc2)NC(=O)OCc2cncs2)C(C)C)cs1 has what Fold change in IC50? 70.9

* * *

Test system: HIV with mutations in the HIV protease sequence
Assay: Phenotypic fold resistance to protease inhibitors, protease mutations 84A/84L/84C/54M/54L/54V in a background (Examples 8-13)
Type: cell-based, HIV-1
Settings: Table 13, V052951, genotype 33F + 77I
We begin with a simple list: items and their reported Fold change in IC50.
Quick reminder: number only, in fold, skip the unit.

// solved cases for Fold change in IC50 follow
smiles=CC(C)CN(C[C@@H](O)[C@H](Cc1ccccc1)NC(=O)O[C@H]1CCOC1)S(=O)(=O)c1ccc(N)cc1 test_result=0.3
smiles=Cc1c(O)cccc1C(=O)N[C@@H](CSc1ccccc1)[C@H](O)CN1C[C@H]2CCCC[C@H]2C[C@H]1C(=O)NC(C)(C)C test_result=5.2
smiles=CC(C)(C)NC(=O)[C@@H]1C[C@@H]2CCCC[C@@H]2CN1C[C@@H](O)[C@H](Cc1ccccc1)NC(=O)[C@H](CC(N)=O)NC(=O)c1ccc2ccccc2n1 test_result=0.4
smiles=CC(C)c1nc(CN(C)C(=O)N[C@H](C(=O)N[C@@H](Cc2ccccc2)C[C@H](O)[C@H](Cc2ccccc2)NC(=O)OCc2cncs2)C(C)C)cs1 test_result=0.3

--- query ---
Entry CC(C)(C)NC(=O)[C@@H]1CN(Cc2cccnc2)CCN1C[C@@H](O)C[C@@H](Cc1ccccc1)C(=O)N[C@H]1c2ccccc2C[C@H]1O has what Fold change in IC50? 0.4
